# Test system: RPMI-8226 leukemia
# Method Description: NCI-60 one-dose screen, 48 h
# Condition: 10 µM unless noted
Compounds without any hit were thinned out: in the full panel of roughly 83,000, 20% have a hit. The source made the active and inactive calls. The calls were made as follows: active = growth percent below 10; inactive = the rest.
The reply should name one outcome from Y = active, N = inactive

CCOc1ccccc1NC(=O)CCC(=O)OC ... N
NC(=N\N=C/c1ccc(Cl)cc1Cl)/C(N)=N\N=C/c1ccc(Cl)cc1Cl ... N
COc1cc(OCc2cccc(-c3ccccc3)c2C)cc(OC)c1CN1CCCCC1C(=O)NCCOCCOCCN (stereo not given) ... N

Request: # lookup: test call for C=CN(C(=O)N1CCN(c2cc3c(cc2F)c(=O)c(C(=O)O)cn3C2CC2)CC1)c1nc(-c2ccc(C)cc2)cs1
Response: Y

Request: # lookup: test call for CCOC(=O)c1c(C)c2c(n1Cc1ccccc1)CSc1cc(C#N)c(=O)[nH]c1-2
Response: N
